From: patent EP2128158A1

Here the recorded pEC50 is given for each entry.
experimental_system: full length human FXR (Homo sapiens, UniProt Q96RI1)
Construct: The full length human FXR (NM_005123) was cloned into pTRexDest30; expressed in transfected cells
test_description: Direct reporter (DR) gene assay in stably transfected HEK293 cells (D2IV3), luciferase
Format: cell-based
run_parameters: 16 hours incubation, firefly luciferase, read-out: DR assay EC50 (±sd)
Expect pEC50 as a plain number equal to -log10 of the molar concentration.

CC(C)c1onc(-c2c(Cl)cccc2Cl)c1COc1ccc(N(C)Cc2cccc(C(=O)O)c2)c(C(F)(F)F)n1 [Compound C, reference compound]    8.24

What value of measured pEC50 is listed for CC(C)c1onc(-c2c(Cl)cccc2Cl)c1COc1ccc(N(C)Cc2ccc(C(=O)O)cc2)c(C(F)(F)F)n1 [Compound B, reference compound] ?
7.89

What value of measured pEC50 is listed for Cc1cc(CN(C)c2ccc(OCc3c(-c4c(Cl)cccc4Cl)noc3C3CC3)nc2C(F)(F)F)ccc1C(=O)O [Example 2] ?
8.22

What value of measured pEC50 is listed for Cc1cc(CN(C)c2ccc(OCc3c(-c4c(Cl)cccc4Cl)noc3C3CC3)nc2C(F)(F)F)cc(C)c1C(=O)O [Example 3] ?
8.22

---

experimental_system: human FXR alpha ligand binding domain (Homo sapiens, UniProt Q96RI1)
Construct: made in house; host or cells: E. coli BL21(DE3), vector pDEST15
Sequence (Q96RI1 187-472 isoform Q96RI1-2): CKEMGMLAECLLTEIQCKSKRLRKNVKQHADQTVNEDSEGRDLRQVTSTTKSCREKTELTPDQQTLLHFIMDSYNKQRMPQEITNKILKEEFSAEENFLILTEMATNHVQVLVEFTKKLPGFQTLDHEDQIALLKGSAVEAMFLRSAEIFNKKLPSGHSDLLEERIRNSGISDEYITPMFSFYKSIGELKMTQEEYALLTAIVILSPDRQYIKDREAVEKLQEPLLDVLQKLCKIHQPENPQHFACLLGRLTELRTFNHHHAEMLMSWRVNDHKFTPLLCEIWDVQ
test_description: FRET activity assay (ligand mediated FXR-LBD / SRC-1 cofactor peptide interaction, LANCE)
Assay type: biochemical
run_parameters: GST-tagged FXR-LBD, biotinylated SRC-1 peptide 676-700; read-out: FRET assay EC50 (±sd)
assay_readout: pEC50
Expect pEC50 as a plain number equal to -log10 of the molar concentration.

What value of measured pEC50 is listed for CC(C)c1onc(-c2c(Cl)cccc2Cl)c1COc1ccc(N(C)Cc2cccc(C(=O)O)c2)c(C(F)(F)F)n1 [Compound C, reference compound] ?
7.96

---

experimental_system: human FXR alpha ligand binding domain (Homo sapiens, UniProt Q96RI1)
Construct: made in house; host or cells: E. coli BL21(DE3), vector pDEST15
Sequence (Q96RI1 187-472 isoform Q96RI1-2): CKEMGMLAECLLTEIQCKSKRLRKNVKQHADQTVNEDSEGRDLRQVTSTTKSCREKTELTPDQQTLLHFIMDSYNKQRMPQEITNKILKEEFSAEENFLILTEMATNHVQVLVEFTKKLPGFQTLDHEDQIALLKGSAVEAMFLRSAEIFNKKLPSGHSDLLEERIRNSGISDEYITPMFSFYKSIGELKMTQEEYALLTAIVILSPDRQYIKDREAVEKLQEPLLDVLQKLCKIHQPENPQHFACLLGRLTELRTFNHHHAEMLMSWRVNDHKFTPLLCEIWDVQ
test_description: FRET activity assay (ligand mediated FXR-LBD / SRC-1 cofactor peptide interaction, LANCE)
Type: biochemical
run_parameters: read-out: FRET assay EC50 (±sd); GST-tagged FXR-LBD, biotinylated SRC-1 peptide 676-700
assay_readout: pEC50
Expect pEC50 as a plain number equal to -log10 of the molar concentration.

What value of measured pEC50 is listed for CN(Cc1ccc(C(=O)O)cc1)c1ccc(OCc2c(-c3c(Cl)cccc3Cl)noc2C2CC2)nc1C(F)(F)F ?
8.08
